Provide the reported Ki of each item.

Which measured Ki belongs to NC(CCC(=O)NCS(=O)(=O)O)C(=O)O (centres undefined) [CAS_90237-02-8] , tested on Glutamate receptor 3 (Homo sapiens, UniProt P42263)? > 10 µM

Which measured Ki belongs to CC(C)[C@H](NC(=O)[C@H](CCCCN)NC(=O)[C@@H](Cc1c[nH]c2ccccc12)NC(=O)[C@H](Cc1ccc(O)cc1)NC(=O)[C@H](CS)NC(=O)[C@H](N)Cc1ccc2ccccc2c1)C(=O)N[C@@H](CS)C(=O)N[C@@H](Cc1ccc2ccccc2c1)C(N)=O [Dnal,Cys,Tyr,DTrp,Lys,Val,Cys,Nal-nh2] , tested on Glutamate receptor 3 (Homo sapiens, UniProt P42263)? 0.494 µM

Which measured Ki belongs to CC1=NN=C(c2ccc(N)cc2)c2cc3c(cc2C1)OCO3 [GYKI-52466] , tested on Glutamate receptor 3 (Homo sapiens, UniProt P42263)? > 10 µM

Which measured Ki belongs to O=C1N=c2c3c(ccc2=C1NO)C([N+](=O)[O-])CCC3 (centres undefined) [NSC_5311098] , tested on Glutamate receptor 3 (Homo sapiens, UniProt P42263)? > 10 µM

----------
assay-metric: Ki

Which measured Ki belongs to O=C1N=c2c3c(ccc2=C1NO)C([N+](=O)[O-])CCC3 (stereo not drawn) [NSC_5311098] , tested on Glutamate receptor 3 (Rattus norvegicus, UniProt P19492)? > 10 µM

Which measured Ki belongs to CC1=NN=C(c2ccc(N)cc2)c2cc3c(cc2C1)OCO3 [GYKI-52466] , tested on Glutamate receptor 3 (Rattus norvegicus, UniProt P19492)? > 10 µM

Which measured Ki belongs to NC(CCC(=O)NCS(=O)(=O)O)C(=O)O (stereo not drawn) [CAS_90237-02-8] , tested on Glutamate receptor 3 (Rattus norvegicus, UniProt P19492)? > 10 µM
